# System: OVCAR-8 ovarian
# methodNotes: NCI tumour cell line growth inhibition, 48 h

{"compound": "N#Cc1ccc(NC(=NCC(=O)O)Nc2ccc3ccccc3c2)cc1", "testTarget": "OVCAR-8 ovarian", "TGI": "> 10 µM"}
{"compound": "Cc1nn(-c2ccccc2)c2ncc3c(c12)C(=O)N(Cc1ccccc1)C3=O", "testTarget": "OVCAR-8 ovarian", "TGI": "> 100 µM"}
{"compound": "C#Cc1cccc(NC(=O)Nc2cccc(NC(=O)CCl)c2)c1", "testTarget": "OVCAR-8 ovarian", "TGI": "> 82.5 µM"}
{"compound": "CCN(CC)CCCC(C)NC(=S)N/N=C(\\C)c1ccccn1 (stereo unspecified)", "testTarget": "OVCAR-8 ovarian", "TGI": "> 100 µM"}
{"compound": "COc1ccc(C2CC(c3ccc(OC)c(OC)c3)=NN2C(=O)c2cc(OC)c(OC)c(OC)c2)cc1 (stereo unspecified)", "testTarget": "OVCAR-8 ovarian", "TGI": "> 100 µM"}
{"compound": "CCC1(CC)C(=O)N(C(=O)c2ccc(Cl)cc2)N(C(=O)c2ccccc2Cl)C1=O", "testTarget": "OVCAR-8 ovarian", "TGI": "> 100 µM"}
{"compound": "COCN1C(=O)[C@@H]2C[C@@H](OC/C=C/CBr)CN2C(=O)c2ccccc21", "testTarget": "OVCAR-8 ovarian", "TGI": "34 µM"}
{"compound": "Cn1cnc2nc(Cl)nc(Cl)c21", "testTarget": "OVCAR-8 ovarian", "TGI": "26.2 µM"}
{"compound": "COc1ccc(-c2nccn2-c2cc(OC)c(OC)c(OC)c2)cc1", "testTarget": "OVCAR-8 ovarian", "TGI": "> 100 µM"}
{"compound": "C=C(Cl)C(Cl)(CBr)CCC(Cl)C(C)C (stereo unspecified)", "testTarget": "OVCAR-8 ovarian", "TGI": "> 100 µM"}
{"compound": "COc1ccc(C(=O)CC(Cl)=C(Cl)Cl)cc1", "testTarget": "OVCAR-8 ovarian", "TGI": "> 100 µM"}
